In this section, each of the molecules is paired with its reported Inhibition.
test system: Plasmodium falciparum; assay: GSK_TCMDC: Inhibition of Plasmodium falciparum 3D7 in whole red blood cells, using parasite LDH activity as an index of growth. Test compounds present at 2uM; assay type: functional
metric_name: Inhibition (%)

- molecule: "O=C(Cc1cccc(Cl)c1)Nc1cccc(-c2c[nH]c3nc(Nc4cccc(O)c4)ncc23)c1.O=C(O)C(F)(F)F"
  metric_name: "Inhibition"
  measured_result: 100
- molecule: "CCN(C(=O)c1ccc(NC(=O)c2cccs2)cc1)c1nc2c(C)cccc2s1"
  metric_name: "Inhibition"
  measured_result: 89
- molecule: "CCC(C)NS(=O)(=O)c1ccc2nc(Nc3ccc(C)cc3)n([C@H](C)C(C)(C)C)c2c1 (stereo not given in full)"
  metric_name: "Inhibition"
  measured_result: 98
- molecule: "N[C@@H](Cc1cc(I)c(Oc2ccc(O)c(C(=O)O)c2)c(I)c1)C(=O)O"
  metric_name: "Inhibition"
  measured_result: 97
- molecule: "CCN(CC)CC#Cc1ccc2[nH]c(C)c(Cl)c(=O)c2c1"
  metric_name: "Inhibition"
  measured_result: 96
- molecule: "CCc1cccc(NC(=O)/C=C/c2ccc3c(c2)CN(C)CC3)c1"
  metric_name: "Inhibition"
  measured_result: 94
- molecule: "CO/C(=C\\C=C\\c1cc2cc(Cl)c(Cl)cc2[nH]1)C(=O)NC1CC(C)N(C)C(C)C1 (stereo not given)"
  metric_name: "Inhibition"
  measured_result: 97
- molecule: "COc1ccc(NC(=O)CCNc2ccnc(NCCc3ccc(F)cc3)n2)cc1.O=C(O)C(F)(F)F"
  metric_name: "Inhibition"
  measured_result: 94
- molecule: "Cc1[nH]c(C)c(-c2ccc(-c3ccccc3Cl)nc2)c(=O)c1Cl"
  metric_name: "Inhibition"
  measured_result: 98
- molecule: "CCCC(=O)c1cnc2c(Oc3cc(Cl)ncn3)cccc2c1Nc1ccccc1C"
  metric_name: "Inhibition"
  measured_result: 99
- molecule: "Cc1ccc(-c2csc(C)n2)c(C)c1"
  metric_name: "Inhibition"
  measured_result: 98
- molecule: "Cc1ccc(NC(=O)c2ccc(CN3CCCN(Cc4cccc(O)c4)CC3)cc2)cc1C.O=C(O)C(F)(F)F"
  metric_name: "Inhibition"
  measured_result: 98
- molecule: "Br.CC(CCON1C(N)=NC(N)=NC1(C)C)c1ccc(Cl)c(Cl)c1 (stereo not given)"
  metric_name: "Inhibition"
  measured_result: 98
- molecule: "O=C(Nc1cccc(-c2cc(-c3c(Cl)cccc3Cl)no2)c1)c1cncc(-c2cccs2)c1"
  metric_name: "Inhibition"
  measured_result: 91
- molecule: "COc1cc(Cc2cnc(N)nc2N)cc(OCCCS(=O)(=O)O)c1OC"
  metric_name: "Inhibition"
  measured_result: 88
- molecule: "Cc1cc(CN2CCCN(c3ccc4c(c3)CCN(Cc3ccc(-c5ncc[nH]5)cc3)CC4)CC2)n(C)n1"
  metric_name: "Inhibition"
  measured_result: 86
- molecule: "Cc1[nH]cnc1-c1cccc(NC(=O)c2cc3ccccc3s2)c1"
  metric_name: "Inhibition"
  measured_result: 99
- molecule: "O=C(NCC1CCC(C(=O)NCCc2ccc(Cl)c(Cl)c2)CC1)c1ccc(O)c(-c2ccc(Cl)c(Cl)c2)c1 (stereo not given)"
  metric_name: "Inhibition"
  measured_result: 94
- molecule: "Cc1cccc2nc(-c3ccc(-c4cccc(CNCc5ccc(S(C)(=O)=O)cc5)c4)s3)[nH]c12.O=C(O)C(F)(F)F"
  metric_name: "Inhibition"
  measured_result: 100
- molecule: "Clc1ccc(OCc2ccccc2)c(-c2nc(-c3nc4ncc(Br)cc4[nH]3)cs2)c1"
  metric_name: "Inhibition"
  measured_result: 100
